Listing: half-life at 5 μM of selected compounds
# protocol_notes: Stability of compounds in mouse hepatocytes
# Assay type: in vitro ADME
# measurement_context: cryopreserved mouse hepatocytes in suspension, Diastereoisomer A (upfield shift in 31P NMR), 37° C., 0-240 min, read-out: t1/2 (h) Mouse Hepatocytes Diastereoisomer A (converted)

Would you please look over these solved cases?
INSERT INTO assay_data (compound, test_result) VALUES
  ('CC(=O)SCCNC(=O)CCNC(=O)[C@@H]1OP(=O)(OCOC(=O)c2cc(C)nn2C)OCC1(C)C (stereo partly shown)', '< 0.25 h'),
  ('CC(=O)SCCNC(=O)CCNC(=O)[C@@H]1OP(=O)(OCOC(=O)c2scnc2C)OCC1(C)C (stereo partly shown)', '0.31 h'),
  ('CC(=O)SCCNC(=O)CCNC(=O)[C@@H]1OP(=O)(OCOC(=O)NCCOC(=O)C(C)(C)C)OCC1(C)C (stereo partly shown)', '< 0.25 h');

Now consider a different compound.
Query: Looking for the measured half-life at 5 μM of CC(=O)SCCNC(=O)CCNC(=O)[C@@H]1O[P@@](=O)(OCOC(=O)C(C)(C)C)OCC1(C)C , can you help?
Result: < 0.25 h

Where do the numbers come from? From patent US20190337971A1.
